# Subject of test: Human PDE4C (Homo sapiens (Human))
# Sequence (Q08493 2-712): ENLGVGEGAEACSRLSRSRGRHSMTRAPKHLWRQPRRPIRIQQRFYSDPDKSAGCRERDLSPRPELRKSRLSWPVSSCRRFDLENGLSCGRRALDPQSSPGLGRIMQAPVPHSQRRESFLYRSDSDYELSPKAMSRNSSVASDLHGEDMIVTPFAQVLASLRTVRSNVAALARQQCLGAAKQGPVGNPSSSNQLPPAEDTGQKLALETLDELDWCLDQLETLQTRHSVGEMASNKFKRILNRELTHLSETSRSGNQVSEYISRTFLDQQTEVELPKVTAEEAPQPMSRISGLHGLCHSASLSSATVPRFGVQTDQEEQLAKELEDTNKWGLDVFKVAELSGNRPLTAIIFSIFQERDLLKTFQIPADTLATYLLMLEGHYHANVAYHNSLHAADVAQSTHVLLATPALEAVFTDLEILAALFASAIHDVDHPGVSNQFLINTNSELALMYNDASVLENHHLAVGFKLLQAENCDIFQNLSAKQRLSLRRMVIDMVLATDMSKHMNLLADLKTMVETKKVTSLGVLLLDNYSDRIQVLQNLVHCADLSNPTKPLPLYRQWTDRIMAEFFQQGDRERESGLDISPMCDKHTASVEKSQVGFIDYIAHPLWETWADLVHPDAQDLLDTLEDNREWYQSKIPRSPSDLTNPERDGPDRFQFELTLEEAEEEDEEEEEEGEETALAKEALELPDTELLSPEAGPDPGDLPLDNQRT
# Assay info: PDE4C Scintillation Proximity Assay (SPA), inhibition of enzyme activity
# Assay type: biochemical
# Measurement context: human recombinant enzyme, 1 μM cAMP substrate, 30 min at 25° C., geometric mean of 2-9 determinations unless otherwise indicated, read-out: Human PDE4C FL
What IC50 was measured for each of the following?
Report the figure in nM without appending any unit label.

Give the measured IC50 of O=C(NC1CC1)c1nc2cccnn2c1-c1cccc(Cl)c1 .
21

Give the measured IC50 of Cc1cc(Cl)ccc1-c1c(C(=O)NC2CC2)nc2cccnn12 .
89.6

Give the measured IC50 of CCCNC(=O)c1nc2cccnn2c1-c1cc(Cl)cc(Cl)c1 .
49

Give the measured IC50 of O=C(c1nc2cccnn2c1-c1ccnc(OC(F)F)c1)N1CCC1 .
22.2

Give the measured IC50 of CNC(=O)c1nc2cccnn2c1-c1cc(F)c(Cl)cc1C .
150

Give the measured IC50 of Cc1ccc(-c2c(C(=O)N3CCC3)nc3cccnn23)c(F)c1 .
136

Give the measured IC50 of CNC(=O)c1nc2cccnn2c1-c1cc(F)c(Cl)cc1F .
134

Give the measured IC50 of O=C(NC1CC1)c1nc2cccnn2c1-c1ccc(OC(F)F)nc1 .
397

Give the measured IC50 of O=C(NC1CC1)c1nc2cccnn2c1-c1cc(F)c(Cl)cc1F .
40.9

Give the measured IC50 of COC1CN(C(=O)c2nc3cccnn3c2-c2ccc(Cl)cc2)C1 .
5810

Give the measured IC50 of CCCNC(=O)c1nc2cccnn2c1-c1ccc(Cl)c(F)c1 .
13.8

Give the measured IC50 of N#Cc1ccc(-c2c(C(=O)NC3CC3)nc3cccnn23)cn1 .
208

Give the measured IC50 of N#Cc1cc(F)c(-c2c(C(=O)N3CCC3)nc3cccnn23)cc1F .
59.7

Give the measured IC50 of O=C(NC1CC1)c1nc2cccnn2c1-c1ccc2ocnc2c1 .
67.8

Give the measured IC50 of O=C(NC1CC1)c1nc2cccnn2c1-c1ccc(Cl)cc1F .
58.1

Give the measured IC50 of Cc1cc2ncnn2cc1-c1c(C(=O)NC2CC2)nc2cccnn12 .
3760

Give the measured IC50 of Cc1cc(C#N)c(F)cc1-c1c(C(=O)N2CCC2)nc2cccnn12 .
74.8

Give the measured IC50 of CCNC(=O)c1nc2cccnn2c1-c1cc(F)c(C#N)cc1C .
107

Give the measured IC50 of O=C(NCC1CC1)c1nc2cccnn2c1-c1ccc(Cl)cc1 .
76

Give the measured IC50 of CN(C(=O)c1nc2cccnn2c1-c1ccc(Cl)cc1)C1CC1 .
469

* * *

# Subject of test: Human PDE4D (Homo sapiens (Human), UniProt Q08499)
# Sequence (Q08499 186-808): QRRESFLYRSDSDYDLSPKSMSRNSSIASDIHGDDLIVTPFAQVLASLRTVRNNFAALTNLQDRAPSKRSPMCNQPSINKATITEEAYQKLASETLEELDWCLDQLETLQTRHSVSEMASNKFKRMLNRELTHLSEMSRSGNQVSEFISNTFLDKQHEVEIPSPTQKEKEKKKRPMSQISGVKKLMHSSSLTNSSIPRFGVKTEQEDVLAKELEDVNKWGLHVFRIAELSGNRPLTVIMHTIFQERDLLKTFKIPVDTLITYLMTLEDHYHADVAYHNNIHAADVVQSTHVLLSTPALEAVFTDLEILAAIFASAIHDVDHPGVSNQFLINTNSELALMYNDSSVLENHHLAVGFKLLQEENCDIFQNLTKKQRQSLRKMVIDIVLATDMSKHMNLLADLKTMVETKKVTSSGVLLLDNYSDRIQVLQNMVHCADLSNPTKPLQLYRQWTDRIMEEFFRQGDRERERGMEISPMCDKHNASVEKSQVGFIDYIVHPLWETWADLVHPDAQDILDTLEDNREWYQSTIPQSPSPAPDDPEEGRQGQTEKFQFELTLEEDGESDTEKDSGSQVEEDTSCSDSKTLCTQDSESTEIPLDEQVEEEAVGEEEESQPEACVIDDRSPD
# Assay info: PDE4D Scintillation Proximity Assay (SPA), inhibition of enzyme activity
# Type: biochemical
# Measurement context: human recombinant enzyme, 1 μM cAMP substrate, 30 min at 25° C., geometric mean of 2-9 determinations unless otherwise indicated, read-out: Human PDE4D FL
What IC50 was measured for each of the following?
Report the figure in µM without appending any unit label.

Give the measured IC50 of CNC(=O)c1nc2cccnn2c1-c1cc(F)c(Cl)cc1F .
4.11

Give the measured IC50 of N#Cc1ccc(-c2c(C(=O)N3CCC3)nc3cccnn23)cc1F .
4.13

Give the measured IC50 of CCNC(=O)c1nc2cccnn2c1-c1ccc(Cl)cc1C .
14.8

Give the measured IC50 of O=C(NC1CC1)c1nc2cccnn2c1-c1ccc2ncoc2c1 .
10.4

Give the measured IC50 of O=C(N[C@@H]1C[C@@H]1F)c1nc2cccnn2c1-c1ccc(Cl)cc1F .
2.62

Give the measured IC50 of Cc1cc(C#N)c(F)cc1-c1c(C(=O)N2CCC2)nc2cccnn12 .
0.49

Give the measured IC50 of O=C(NC1CC1)c1nc2cccnn2c1-c1ccc(OC(F)F)nc1 .
6.79
